experiment: yeast display, Sf9 membrane polyspecificity reagent, FACS + sequencing; frameworks hold sequencing errors
readout: polyreactivity (PSR sort gate)

Example sequences with recorded polyreactivity (PSR sort gate):
sequence_chain=QVQLVESGGGLVQAGGSLRVSCAASGSTFPSNAMGWYRQAPGKERELVATITSAGGGTYYADSVKGRFTISRDNAKNSVYLQMNSLKAEDTAVYYCNADGPAGDAFDYWGPGTQVTVSS assay_result="low polyreactivity"
sequence_chain=QVQLVESGGGLVQAGGSLRLSCAASGSIFGSYAMGWYRQAPGKERELVAAISYSGGTTYYADSVKGRFTISRDNAKNTVYLQMNSLKPEDTAVYYCNAPVAYQREYDYWGLGTQVTVSS assay_result="low polyreactivity"
sequence_chain=QDQLVESGGGIVQAGGSLRLICAASGRIFLRNDMGWYRQAPGKQRELVAGISSDGSTYYADSVKGRFTISRDNAKNTVYLQMNSLKPEDTAVYYCADERWGNPTDYQFWRQYDYWGQGTQVTVSS assay_result="low polyreactivity"
sequence_chain=QVQLVESGGGLVQAGGSLRLSCAASGSTFVYNAMGWYRQAPGKERELVAAISWSDGSTYYADSVKGRFTISRDNAKNTVYLELNSLKPEDTAVYYCADEGYYSWDVHDYNYWGQGTQVTVSS assay_result="high polyreactivity"
sequence_chain=QVQLVESGGGLVQAGGSLGLSCAASGSTLYGNAMGWYRQAPGKERELVAAINTGGSTNYADSVKGRFTISRDNAKNTVYVQMNSLKPEDTAVYYCAADYEWDATHDYWGQGTQVTVSS assay_result="low polyreactivity"

Consider the following items and state reported polyreactivity (PSR sort gate) for each.
1. QVQLVESGGGLVQAGGSLRLSCAASGRIFTGNAMGWNRQAPGKERELVAAISASGSSTYYADSVKGRFTISRDNAKNTVYLQMNRLKPDDTAVYYCAADGWYGYYYWGQGTQVTVSS
2. QVQLVESGGGLVQAGGSLRLSCAASGRIFAWYAMGWYRQAPGKDRELVAAISDSGGSTYYADSVKGRFTISRDNAKNTVYLQMNSLKPEVTAVYYWAADQVVYYAYWSDHYDDWGQGTQVTVSS
3. QVQLEESGGGLVQAGGSLRLSCAGSGFISNGYALGWYRQAPGKEREFVASISSTGGRTYYADSVKGRFTISRDNAKNTVYLLMNSLKPEDTSVYYCAKDPQPRYWVDYWGQGTQVTVSS
4. QVQLEESGGGIVQAGGTLRLTCAASGRIYATNAMGWSRQAPGKERELVATITRSAGRTYYADSVKGRFTISGDNAKNTVYLQMNSLKPEDTAVYYCAASYWDTEPGYREYDYWGQGTEVTVSS
5. QVQLVESGGGLVQAGGSLRLSCAASGSTFFWYAMGWYRQEPGKERELVAAINWRGDRTYYADSVKGRFTISRDNAKNTVYLQMNSLKPEDTAVYYCNAVRVHAYSTGEYGYWGQGTQVTVSS

Out:
1: high polyreactivity; 2: low polyreactivity; 3: low polyreactivity; 4: low polyreactivity; 5: high polyreactivity
